Measure: pIC50
pIC50 here: minus log base 10 of the concentration, concentration in moles per litre.

**Query** For the record CCCCCCCCCCCCC(CP(=O)(OCC)OCC)C1=CC(=O)OC1O (stereo not shown) , what value of pIC50 is listed for UniProt:P00630?
**Result** 7.00

**Query** Field: pIC50 (UniProt:P00630). Entry: CCCCCCCCCCCCC(CC(=O)OCC)C1=CC(=O)OC1O (stereo not shown)
Sequence (P00630 34-167 limits assumed): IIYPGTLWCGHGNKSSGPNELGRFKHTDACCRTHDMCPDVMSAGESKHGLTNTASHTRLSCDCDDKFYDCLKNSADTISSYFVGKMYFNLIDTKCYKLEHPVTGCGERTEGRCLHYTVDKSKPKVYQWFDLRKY
**Result** 6.59

**Query** pIC50 of CCCCCCCCCCCCC(=CP(=O)(OCC)OCC)C1=CC(=O)OC1O (stereo not shown) on UniProt:P00630?
**Result** 7.10

**Query** // map CCCCCCCCCCCCC(=CC(=O)C(F)(F)F)C1=CC(=O)OC1O (stereo not shown) to recorded pIC50 (system: UniProt:P00630)
**Result** 7.40

**Query** Report pIC50 for CC(=CCCC1=CCC(C2=CC(=O)OC2O)OC1O)CCC1=C(C)CCCC1(C)C (stereo not shown) tested on UniProt:P00630.
**Result** 7.52

**Query** Form field: pIC50 recorded for CCCCCCCCCCCCC(CC(C)=O)C1=CC(=O)OC1O (stereo not shown) with UniProt:P00630 (enter value)
**Result** 7.05

**Query** Write down the reported pIC50 of CCCCCCCCCCCCC(C1=CC(=O)OC1O)C(C(=O)OC)C(=O)OC (stereo not shown) , test system: UniProt:P00630.
**Result** 7.10

**Query** Quick check: pIC50 on UniProt:P00630, item CCCCCCCCCCCCC(CC(=O)C(F)(F)F)C1=CC(=O)OC1O (stereo not shown) ?
**Result** 6.38

**Query** I'm curious: which pIC50 was measured for CCCCCCCCCCCCC(CC(=O)O)C1=CC(=O)OC1O (stereo not shown) tested on UniProt:P00630?
**Result** 6.89
